Data origin, for the record: ChEMBL document CHEMBL1148410

# Test system: KB
# assay details: Concentration required to reduce proliferation of KB subclones passaged in the presence of etoposide 7 uM (KB7D) cell line by 50% as determined by the MTT method
# Type: functional, cell-based
# test parameters: Homo sapiens
pIC50: −log10 of the molar value. *1 amine or outer side, *2 acyl side, *3 side chain or, on linkers, in order; H or OH if unused. Where a SMILES comes first, the peptide text is derived from it. Bridges are numbered along the chain shown (N, C = ends). Roman numbers before positions name the chains, in order. [ ]: non-standard residue; d: D form. Actinocin(1to9) = Cc1c2oc3c(C)ccc(C(=O)[*:2])c3nc-2c(C(=O)[*:1])c(N)c1=O; NMeV = CN[C@H](C(=O)O)C(C)C; Sar = CNCC(=O)O

[
  {
    "compound": "CCOC(=O)C1=CC2C(=O)c3ncccc3C(=O)C2C(c2ccc([N+](=O)[O-])cc2)=N1 (stereo not drawn)",
    "measured target": "KB",
    "qualifier": "=",
    "pIC50": 6.40
  },
  {
    "compound": "Cc1c2oc3c(C)ccc(C(=O)N[C@@H]4C(=O)N[C@H](C(C)C)C(=O)N5CCC[C@H]5C(=O)N(C)CC(=O)N(C)[C@@H](C(C)C)C(=O)O[C@@H]4C)c3nc-2c(C(=O)N[C@@H]2C(=O)N[C@H](C(C)C)C(=O)N3CCC[C@H]3C(=O)N(C)CC(=O)N(C)[C@@H](C(C)C)C(=O)O[C@@H]2C)c(N)c1=O [DACTINOMYCIN] (I: T[dV]P[Sar][NMeV] / II: T[dV]P[Sar][NMeV]; ester I:1-I:C, II:1-II:C; linker I:N-II:N via Actinocin(1to9))",
    "measured target": "KB",
    "qualifier": "=",
    "pIC50": 6.70
  },
  {
    "compound": "COc1cc([C@@H]2c3cc4c(cc3[C@@H](O[C@@H]3O[C@@H]5CO[C@@H](C)O[C@H]5[C@H](O)[C@H]3O)[C@H]3COC(=O)[C@H]23)OCO4)cc(OC)c1O [ETOPOSIDE]",
    "measured target": "KB",
    "qualifier": "<",
    "pIC50": 4.70
  }
]

====

# Tested on: SK-MEL-28
# assay details: Concentration required to reduce proliferation of human melanoma (SKMEL-28) cell line by 50% as determined by the MTT method
# Assay type: functional, cell-based
pIC50: −log10 of the molar value.
Each entry below carries its reported pIC50.

[
  {
    "molecule": "CCOC(=O)C1=CC2C(=O)c3ncccc3C(=O)C2C(c2ccc([N+](=O)[O-])cc2)=N1 (stereo unspecified)",
    "measured target": "SK-MEL-28",
    "pIC50": 9.00
  },
  {
    "molecule": "CCOC(=O)C1=CC2C(=O)c3cccnc3C(=O)C2C(c2ccc(Br)cc2)=N1 (stereo unspecified)",
    "measured target": "SK-MEL-28",
    "pIC50": 6.05
  },
  {
    "molecule": "CCOC(=O)C1=CC2C(=O)c3ncccc3C(=O)C2C(c2ccc(Cl)cc2)=N1 (stereo unspecified)",
    "measured target": "SK-MEL-28",
    "pIC50": 6.70
  },
  {
    "molecule": "CCOC(=O)C1=CC2C(=O)c3cccnc3C(=O)C2C(c2ccccc2)=N1 (stereo unspecified)",
    "measured target": "SK-MEL-28",
    "pIC50": 6.10
  },
  {
    "molecule": "CCOC(=O)C1=CC2C(=O)c3cccnc3C(=O)C2C(c2ccc([N+](=O)[O-])cc2)=N1 (stereo unspecified)",
    "measured target": "SK-MEL-28",
    "pIC50": 6.70
  },
  {
    "molecule": "CCOC(=O)C1(N)CSC2=C1C(=O)c1ncccc1C2=O (stereo unspecified)",
    "measured target": "SK-MEL-28",
    "pIC50": 6.70
  },
  {
    "molecule": "CCOC(=O)C1=CC2C(=O)c3ncccc3C(=O)C2C(c2ccc(C)cc2)=N1 (stereo unspecified)",
    "measured target": "SK-MEL-28",
    "pIC50": 6.70
  },
  {
    "molecule": "CCOC(=O)C1=CC2C(=O)c3ncccc3C(=O)C2C(c2ccc(OC)cc2)=N1 (stereo unspecified)",
    "measured target": "SK-MEL-28",
    "pIC50": 6.52
  },
  {
    "molecule": "CCOC(=O)C1=CC2C(=O)c3ncccc3C(=O)C2C(c2ccc(N(C)C)cc2)=N1 (stereo unspecified)",
    "measured target": "SK-MEL-28",
    "pIC50": 6.05
  },
  {
    "molecule": "CCOC(=O)C1=CC2C(=O)c3cccnc3C(=O)C2C(c2ccc(OC)cc2)=N1 (stereo unspecified)",
    "measured target": "SK-MEL-28",
    "pIC50": 6.00
  },
  {
    "molecule": "CCOC(=O)C1=CC2C(=O)c3ncccc3C(=O)C2C(c2ccccc2)=N1 (stereo unspecified)",
    "measured target": "SK-MEL-28",
    "pIC50": 6.10
  }
]
